Test system: mice bearing PSMA-expressing LNCAP cancer xenografts
assay_overview: Biodistribution of 68Ga-labeled compounds
Assay type: in vivo
assay_conditions: 1 h post-injection
Reported Urine uptake is given for each of the following molecules.

molecule: O=C([O-])CN1CCN(CC(=O)[O-])CCN(CC(=O)NCCCC[C@H](NC(=O)CNC(=O)CCCc2ccc(I)cc2)C(=O)NC[C@H]2CC[C@H](C(=O)N[C@@H](Cc3ccc4ccccc4c3)C(=O)NCCCC[C@H](NC(=O)N[C@@H](CCC(=O)O)C(=O)O)C(=O)O)CC2)CCN(CC(=O)[O-])CC1.[68Ga+3] [^68Ga-HTK03024]
Urine uptake [% ID/g]: 1.48

molecule: O=C([O-])CN1CCN(CC(=O)[O-])CCN(CC(=O)NCC2CCC(C(=O)NC(Cc3c4ccccc4cc4ccccc34)C(=O)NCCCCC(NC(=O)NC(CCC(=O)O)C(=O)O)C(=O)O)CC2)CCN(CC(=O)[O-])CC1.[68Ga+3] (centres unmarked) [^68Ga-HTK03041]
Urine uptake [% ID/g]: 173

molecule: O=C([O-])CN1CCN(CC(=O)[O-])CCN(CC(=O)NCCCC[C@H](NC(=O)CNC(=O)CCCc2ccc(F)cc2)C(=O)NC[C@H]2CC[C@H](C(=O)N[C@@H](Cc3ccc4ccccc4c3)C(=O)NCCCC[C@H](NC(=O)N[C@@H](CCC(=O)O)C(=O)O)C(=O)O)CC2)CCN(CC(=O)[O-])CC1.[68Ga+3] [^68Ga-HTK03085]
Urine uptake [% ID/g]: 181

molecule: O=C([O-])CN1CCN(CC(=O)[O-])CCN(CC(=O)NCC2CCC(C(=O)NC(Cc3ccc4ccc5cccc6ccc3c4c56)C(=O)NCCCCC(NC(=O)NC(CCC(=O)O)C(=O)O)C(=O)O)CC2)CCN(CC(=O)[O-])CC1.[68Ga+3] (centres unmarked) [^68Ga-HTK03029]
Urine uptake [% ID/g]: 175

molecule: O=C([O-])CN1CCN(CC(=O)[O-])CCN(CC(=O)NCCCC[C@H](NC(=O)CNC(=O)CCCc2ccc(Br)cc2)C(=O)NC[C@H]2CC[C@H](C(=O)N[C@@H](Cc3ccc4ccccc4c3)C(=O)NCCCC[C@H](NC(=O)N[C@@H](CCC(=O)O)C(=O)O)C(=O)O)CC2)CCN(CC(=O)[O-])CC1.[68Ga+3] [^68Ga-HTK03058]
Urine uptake [% ID/g]: 3.97
